Where these numbers come from: patent US20250163127A1

biological target: CTLA4 (human); assay: flow cytometry, CHO cells stably expressing CTLA4
Sequence (chain, as listed by the source): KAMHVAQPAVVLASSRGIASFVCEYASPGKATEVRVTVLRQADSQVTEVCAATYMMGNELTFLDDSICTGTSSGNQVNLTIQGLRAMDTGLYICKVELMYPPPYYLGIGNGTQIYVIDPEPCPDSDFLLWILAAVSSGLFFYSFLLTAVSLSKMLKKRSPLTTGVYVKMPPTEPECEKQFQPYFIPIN
Readout Label: MFI at 33.3 nM (MFI)
All answers are understood in MFI, so give the number only.

// known answers, use as guide
Binder	MFI at 33.3 nM, MFI
CD80 variant Q33L/E35D/M47L/A71G/F92S IgV-Fc (Fc fusion) VIHVTKEVKEVATLSCGHNVSVEELAQTRIYWLKDKKMVLTMMSGDLNIWPEYKNRTIFDITNNLSIVILGLRPSDEGTYECVVLKYEKDASKREHLAEVT	2110
CD80 variant E35D/D46E/M47V/L97Q IgV-Fc (Fc fusion) VIHVTKEVKEVATLSCGHNVSVEELAQTRIYWQKDKKMVLTMMSGEVNIWPEYKNRTIFDITNNLSIVILALRPSDEGTYECVVLKYEKDAFKREHQAEVT	305000
CD80 variant Q33L/E35D/M47L/V68M/L85Q/E88D IgV-Fc (Fc fusion) VIHVTKEVKEVATLSCGHNVSVEELAQTRIYWLKDKKMVLTMMSGDLNIWPEYKNRTIFDITNNLSIMILALRPSDEGTYECVVQKYDKDAFKREHLAEVT	3530

Shift focus to the following entry.
Qu. Find the recorded MFI at 33.3 nM belonging to CD80 variant V22A/R29H/E35D/D46E/M47I IgV-Fc (Fc fusion) VIHVTKEVKEVATLSCGHNVSAEELAQTHIYWQKDKKMVLTMMSGEINIWPEYKNRTIFDITNNLSIVILALRPSDEGTYECVVLKYEKDAFKREHLAEVT and report it.
Ans. 77400
